# pKd values compiled below
- Target system: Human CD33 ECD-HSA (human)
- Sequence (chain, as listed by the source): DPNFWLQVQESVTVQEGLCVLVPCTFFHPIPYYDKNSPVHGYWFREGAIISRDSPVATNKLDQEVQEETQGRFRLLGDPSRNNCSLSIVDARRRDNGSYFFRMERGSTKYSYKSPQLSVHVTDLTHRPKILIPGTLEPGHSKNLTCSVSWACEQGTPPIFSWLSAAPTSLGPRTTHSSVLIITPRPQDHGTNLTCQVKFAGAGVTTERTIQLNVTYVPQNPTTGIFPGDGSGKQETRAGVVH
- Assay protocol: ProteOn SPR, mAb captured by anti-human Fc, 1:1 Langmuir fit
// pKd: -log10(molar conc.)

Solved entries:
Binder: C33B122 (antibody, IgG1, V domains shown, huIgG1 F405L; also called C33F127; C33H92/C33L30) VH: QLQLQESGPGLVKPSETLSLTCTVSGGSIRSSSYYWGWIRQPPGKGPEWIGSIYSSGNTYYNPSLKSRVTISVDTSKNQFSLKLISMTAADTAVFYCARLAATIVVPAARYFDCWGQGTLVTVSS VL: SYELTQPPSVSVSPGQTVSISCSGDRLGDKYACWYQQKPGQSPVLVIYQDSKRPSGIPERFSGSNSGNTATLTISGTQAMDEADYYCQAWDSSSYVFGTGTKVTVL
pKd: 8.02

Binder: C33B80 (antibody, IgG1, V domains shown, huIgG1 F405L; also called C33F85; C33H76/C33L39) VH: EVQLLESGGGLVQPGGSLRLSCAASGFTFNYAMSWVRQAPGKGLEWVSAISGSGGSTYYADSVKGRFTISRDISKNTLYLQMNSLRAEDTAVYYCARTYNSGYYDGDFDYWGQGTLVTVSS VL: QSALTQPASVSGSPGQSIPISSTGTSSDDGKNNIVSWYQQHPGKAPKLMIYKDSKRPSGVSNRFSGSKSGNTASLTISGLQADDEADYHCCSYAGASNHVVFGGGTKLTVL
pKd: 8.88

Binder: C33B55 (antibody, IgG1, V domains shown, huIgG1 F405L; also called C33F60; C33H45/C33L11) VH: QVQLVESGGGVVQPGRSLRLSCAASGFTFSSYGMHWVRQSPGKGLEWVAVISYDGSNKYCADSVKGRFTISRDNSKSTLYLQMNSLRAEDTAVYYCAKDFRSLDWLPPDSTSYDGMDVWGQGTTVTVSS VL: SYELTQPPSVSVSPGQTASITCSGHKLGDKYACWYQQKPGQSPVVVIYKDSKRPSGIPERFSGSNFGNTATLTISGTQAMDEADYYCQAWDSSTVVFGGGTKLTVL
pKd: 9.59

Binder: C33B48 (antibody, IgG1, V domains shown, huIgG1 F405L; also called C33F53; C33H80/C33L73) VH: QVQLVQSGSELRKPGASVKVSCKASGYTFTNYAMNWVRQAPGQGLEWMGWINTNTGNPTYAQGFTGRFVFSLDTSVSSAYLQISSLKAEDTAMYYCATDRDRGTDYWGQGTLVTVSS VL: QSALTQPASVSGSPGQSITISCTGTSSDVGDYNYVSWYQQHPGKVPKLMIYDVSNRPSGVSNRFSGSMSGNTASLTISGLQAEDEADYYCSSYSSSSALEVFGGGTKLTVL
pKd: 10.95

## Input I would be grateful if you could share the reported pKd for C33B79 (antibody, IgG1, V domains shown, huIgG1 F405L; also called C33F84; C33H74/C33L38) VH: QVQLVESGGGVVQPGRSLRLSCAASRFTFSSYGMHWVRQAPGKGLEWVAVISYDGSNKYYADSVKGRFTISRDNSKNTLYLQMNSLRAEDTAVHYCAKDFRSFDWLPPDSASYHGMDVWGQGTTVTVSS VL: SYELTQPPSVSVPPGQTASITCSGDKLGDKYACWYQQKPGQSPVLVIYQDNKRPSGIPERFSGSNSGNTATLTISGTQAMDEADYYCQAWGRNTVVFGGGTKLTVL .
## Output 9.12
